// data source = patent US20100260765A1

Molecular target: T1, b-KDRIg4-7-myc-his (UniProt P35968 328-764, prefix 'b-' not explained; captured on neutravidin-coated plates (presumably biotinylated, site not stated))
T1 construct: domain: Ig4-7; The text calls it 'a KDR antibody containing the Ig4-7 domain'; it is read as the KDR fragment; Purified on a nickel column; also called Ig4-7 domain of KDR; soluble KDR Ig4-7; not shown: myc-his tag of the pSecTag vector
T1 sequence (P35968 328-764): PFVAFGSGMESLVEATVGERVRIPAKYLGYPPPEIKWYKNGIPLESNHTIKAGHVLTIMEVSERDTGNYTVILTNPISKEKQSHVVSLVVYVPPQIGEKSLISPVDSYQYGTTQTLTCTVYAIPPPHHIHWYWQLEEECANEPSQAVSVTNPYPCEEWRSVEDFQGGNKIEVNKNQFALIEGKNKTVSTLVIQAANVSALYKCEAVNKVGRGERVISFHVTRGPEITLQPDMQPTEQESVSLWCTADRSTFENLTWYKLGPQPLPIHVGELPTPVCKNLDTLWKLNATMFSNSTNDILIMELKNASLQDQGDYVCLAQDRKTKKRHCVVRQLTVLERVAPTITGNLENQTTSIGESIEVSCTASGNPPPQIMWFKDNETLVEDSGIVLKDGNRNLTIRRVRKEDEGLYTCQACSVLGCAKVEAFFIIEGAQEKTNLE
Test: ELISA, b-KDRIg4-7-myc-his 1 ug/mL on neutravidin, hybridoma supernatant 1:5
Field: label. Allowed values: yes (b-KDRIg4-7 OD(450 nm) < 2 OD450) or no (b-KDRIg4-7 OD(450 nm) >= 2 OD450).

binder | group_label
anti-KDR monoclonal antibody 24B3 (antibody, V domains shown, Fully human mAb from XenoMouse (IgG2 or IgG4 strain); hybridoma supernatant) VH: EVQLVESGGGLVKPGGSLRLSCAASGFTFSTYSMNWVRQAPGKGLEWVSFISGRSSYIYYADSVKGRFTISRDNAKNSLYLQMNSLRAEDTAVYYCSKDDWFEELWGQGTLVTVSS VL: DIQMTQSPSSLSASVGDRVTITCRASQGIRSDLGWYQQKPGKAPKRLIYATSSLQSGVPSRFSGSGSGTEFTLTISSLQPEDFATYYCLQHNRYPWTFGQGTKVEIK | yes
anti-KDR monoclonal antibody 32G7 (antibody, V domains shown, Fully human mAb from XenoMouse (IgG2 or IgG4 strain); hybridoma supernatant) VH: EVQLVESGGGLVKPGGSLRLSCAASGFTISSYSMNWVRQAPGKGLEWVSFISSRSNYIYYADSVKGRFTISRDNAKNSLYLQMNSLRAEDTAVYYCSKDDWFEELWGQGTLVTVSS VL: DIQMTQSPSSLSASVGDRVTITCRASQDIRNDLGWYQQKPGKAPKRLIYAASSLQSGVPSRFSGSGSGTEFTLTISSLQPEDFATYYCLQHNSFPWTFGQGTKVEIK | yes

Input: Is 2 OD450 strictly greater than the binder's reported b-KDRIg4-7 OD(450 nm)? binder: anti-KDR monoclonal antibody 27A3 (antibody, V domains shown, Fully human mAb from XenoMouse (IgG2 or IgG4 strain); hybridoma supernatant) VH: QLQLQESGPGLVKPSETLSLTCTVSGGSISSRSDYWGWIRQPPGKGLEWIGTIYYSGDTYYNPSLKSRVTISVDTSKNQFSLKLSSVTAADTAVYYCARQQLVLYYFDYWGQGTLVTVSS VL: EIVLTQSPGTLSLSPGERATLSCRASQSVSSSYLAWYQQKPGQAPRLLIYATSNRATGIPDRFSGSGSGTDFTLTISRLEPEDFAVYYCQQHGSSPPLTFGGGTKVEIK
Output: yes

Input: Query anti-KDR monoclonal antibody 33C3 (antibody, V domains shown, Fully human mAb from XenoMouse (IgG2 or IgG4 strain); hybridoma supernatant) VH: QVQLVESGGGLVKPGESLRLSCAASGFTFSDYYMSWIRQAPGKGLEWVSYISHGGSTIYYADSVKGRFTISRDNAKNSLYLQMNSLRVEDTAVYFCARDDFWSGYYFNWFDPWGQGALVTVSS VL: DIQMTQYPLSLSASVGDRVTITCRASQSISSFLNWYHQKPGKAPKLLIYGTSSLQSGVPSRFSGSGSGTDFTLTISSLQPEDFATYYCQQTYSIPLTFGGGTNVEIK next
Output: no

Input: Query anti-KDR monoclonal antibody 22B8 (antibody, V domains shown, Fully human mAb from XenoMouse (IgG2 or IgG4 strain); hybridoma supernatant) VH: QLQLQESGPGLVKPSETLSLTCTVSGGSISSRYYYWGWVRQPPGKGLEWIGTIYYSGHTYYNPSLKTRVTISVDTSKNQFSLKLISVTAADTAVYYCATQQLVLYYFDFWGQGTLVTVSS VL: EIVLTQSPGTLSLSPGERAALSCRASQSISSSYLAWYQQRPGQAPRLLIYGASSRATGIPDRFNGSGSGTDFTLTISRLEPEDFAVYYCQQFGSSITFGQGTRLEIK next
Output: no

Input: Query anti-KDR monoclonal antibody 31E11 (antibody, V domains shown, Fully human mAb from XenoMouse (IgG2 or IgG4 strain); hybridoma supernatant) VH: QVQLVESGGGLVKPGGSLRLSCAASGFTFSDYYMSWIRQAPGKGLEWVSYISISGSTIYYADSVKGRFTISRDNAKNSLYLQMNSLRAEDTAVYYCARDDFWSGYYFNWFDPWGQGTLVTVSS VL: DIQMTQSPSSLSASVGDRVTITCRANQTISTFLNWYQQNPGKAPKLLIYAASSLQSGVPSRFSGSGSGTDFTLTISSLQPEDFATYYCQQTYIIPLTFGGGTKVEIK next
Output: yes

Input: Query anti-KDR monoclonal antibody 30A1 (antibody, V domains shown, Fully human mAb from XenoMouse (IgG2 or IgG4 strain); hybridoma supernatant) VH: QLQLQESGPGLVKPSETLSLTCTVSGGSISSPNYYWGWIRQPPGKGLEWIGTIYYSGNTFYNPSLKSRVTISVDTSKNQFSLKLSSVTAADTAVYYCATQQLVLYYFDFWGQGTLVTVSS VL: EIVLTQSPGTLSLSPGKRAALSCRASQSISSSYLAWYQQKPGQAPRLLIYGASSRATGIPDRFNGSGSGTDFTLTISRLEPEDFAVYYCQQLGSSITFGQGTRLEIK next
Output: yes

Input: Query anti-KDR monoclonal antibody 33B1 (antibody, V domains shown, Fully human mAb from XenoMouse (IgG2 or IgG4 strain); hybridoma supernatant) VH: EVQLVESGGGLVKPGGSLRLSCAASGFTFSSYTMNWVRQAPGKGLEWVSFIDSRSSYIYYADSVKGRFTISRDNAKNSLYLQMNSLRAEDTAVYYCSKDDWFEELWGQGTLVTVSS VL: DIQMTQSPSSLSASVGDRVTITCRASQGIRNDLGWYQQKPGKAPKRLIYATSSLQSGVPSRFSGSGSGTEFTLTISSLQPEDFATYYCLHHNSFPWTFGQGTKVEIK next
Output: yes

Input: Query anti-KDR monoclonal antibody 32F4 (antibody, V domains shown, Fully human mAb from XenoMouse (IgG2 or IgG4 strain); hybridoma supernatant) VH: QLQLQESGPGLVKPSGTLSLSCTVSGGSISSRSDYWGWIRQPPGKGLEWIGTIYYSGNTFYNPSLKSRVTISVDTSKKQFSLKLSSVTAADTAVYYCARQQLVLYYFDYWGQGTLVTVSS VL: EIVLTQSPGTLSLSPGERATLSCRTSQSVSSSYLAWYQQKPGQAPRLLIYGASSRATGVPDRFSGSGSGTDFSLTISRLEPEDFAVYYCQQYGSSPPLTFGGGTKVEIK next
Output: no

Input: Query anti-KDR monoclonal antibody 21A1 (antibody, V domains shown, Fully human mAb from XenoMouse (IgG2 or IgG4 strain); hybridoma supernatant) VH: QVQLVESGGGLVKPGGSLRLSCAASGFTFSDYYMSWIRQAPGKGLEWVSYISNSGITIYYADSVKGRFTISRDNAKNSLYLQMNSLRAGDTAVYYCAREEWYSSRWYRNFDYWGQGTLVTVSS VL: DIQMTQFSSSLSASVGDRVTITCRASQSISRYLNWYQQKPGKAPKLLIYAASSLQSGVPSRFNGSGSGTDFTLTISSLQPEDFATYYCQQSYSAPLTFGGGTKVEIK next
Output: yes
